This section presents compounds with their documented T/C values.
test system: BDF1 mice, P388 leukemia ip, median survival T/C; experiment: NCI In Vivo Anticancer Drug Screen. Data for tumor model P388 Leukemia (intraperitoneal) in B6D2F1 (BDF1) mice; details: endpoint: median survival time; dose: 200.0 mg/kg/injection; schedule: Q01DX009 (ip); vehicle: saline; higher = longer survival
Toxic doses and inconclusive results are not listed.
measured parameter: T/C

COC(=O)C1CCCCC1C(=O)OC (configuration not stated) ... 95 % of control
O=C(O)C1=CC(O)C(O)C(O)C1 (configuration not stated) ... 91 % of control
C#CC1(OCC2CO2)CCCCC1 (configuration not stated) ... 103 % of control
C=CC(=O)NCCC(=O)O ... 94 % of control
O=C1C=C(NCc2ccccc2)CCC1 ... 105 % of control
O=C(CSc1cc(-c2ccc(Cl)cc2)s[s+]1)c1ccc(Cl)cc1 ... 107 % of control
CC(=O)Nc1ccc(C)c([N+](=O)[O-])c1 ... 118 % of control
CNC1C(O)C(OC2C(N)CC(N)C(OC3OC(CN)C(O)C(O)C3O)C2O)OCC1(C)O (configuration not stated) ... 91 % of control
Nc1ccc(OCCNS(=O)(=O)c2cccc(S(=O)(=O)F)c2)c(Cl)c1 ... 105 % of control
CC(=O)Nc1ccc(Cl)cc1C(=O)c1ccc[nH]1 ... 110 % of control
CS(=O)(=O)c1nc(N)nc2nc[nH]c12 ... 105 % of control
NC(Cn1ccc(=O)c(O)c1)C(=O)O (configuration not stated) ... 108 % of control
CC12CCC(C(N)C1=O)C2(C)C (configuration not stated) ... 86 % of control
CC(C)OC(=O)C1(N)CCCC1 ... 86 % of control
CC(=O)Nc1ccc2c(O)cc(S(=O)(=O)O)cc2c1 ... 98 % of control
O=C(O)CCCl ... 95 % of control
CC(=O)NC1CCCC(O)C1 (configuration not stated) ... 95 % of control
